- assay.target: T1, recombinant canine β NGF (canine, UniProt Q29074 110-229 (pig entry))
- T1 construct: also called canine NGF
- T1 chain: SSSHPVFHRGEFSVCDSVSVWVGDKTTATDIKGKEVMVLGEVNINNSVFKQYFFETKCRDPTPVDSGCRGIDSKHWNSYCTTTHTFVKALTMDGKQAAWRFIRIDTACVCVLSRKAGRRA
- assay.remarks: SPR (Biacore), mAb captured on goat anti-mouse IgG Fc, canine NGF injected; Average
Hi there, I'd appreciate the recorded Kd for every entry that follows.

Reported Kd of PR-1254981 (antibody, mouse IgG1, V domains shown, also called 14A9; ML130-14A9.5B12) VH: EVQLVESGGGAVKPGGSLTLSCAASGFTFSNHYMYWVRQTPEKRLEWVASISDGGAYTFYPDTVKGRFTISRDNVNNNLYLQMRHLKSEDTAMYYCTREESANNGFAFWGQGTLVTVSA VL: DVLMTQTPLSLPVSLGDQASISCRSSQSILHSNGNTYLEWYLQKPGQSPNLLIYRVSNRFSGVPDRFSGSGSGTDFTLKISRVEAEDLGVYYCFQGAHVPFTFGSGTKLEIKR : 0.0167 nM

// PR-1254973 (antibody, mouse IgG2b, V domains shown, also called 2B12; ML129-2B12.5G9) VH: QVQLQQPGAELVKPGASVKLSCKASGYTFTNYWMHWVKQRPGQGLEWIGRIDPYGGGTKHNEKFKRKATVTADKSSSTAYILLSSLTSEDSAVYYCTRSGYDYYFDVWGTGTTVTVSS VL: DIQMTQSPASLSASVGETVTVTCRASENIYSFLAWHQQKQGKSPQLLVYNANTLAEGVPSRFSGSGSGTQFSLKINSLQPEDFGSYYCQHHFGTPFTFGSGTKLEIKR : Kd value = < 0.013 nM

Per the record, PR-1254977 (antibody, mouse IgG1, V domains shown, also called 21D4; ML129-21D4.4A11) VH: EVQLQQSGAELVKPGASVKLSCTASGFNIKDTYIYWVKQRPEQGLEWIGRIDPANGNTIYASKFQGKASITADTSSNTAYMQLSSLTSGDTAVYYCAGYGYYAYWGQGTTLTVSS VL: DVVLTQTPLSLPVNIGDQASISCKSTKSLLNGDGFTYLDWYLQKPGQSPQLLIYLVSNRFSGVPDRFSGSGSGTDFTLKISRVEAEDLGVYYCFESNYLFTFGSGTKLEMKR has Kd of < 0.015 nM
